Target: T1, human LAG-3 (full length, on the cell surface) (human, UniProt P18627 23-525)
T1 construct: Full-length human LAG-3 expressed on cells; also called HEK293-hLAG-3; HEK293 cells transfected with LAG-3 gene
T1 sequence: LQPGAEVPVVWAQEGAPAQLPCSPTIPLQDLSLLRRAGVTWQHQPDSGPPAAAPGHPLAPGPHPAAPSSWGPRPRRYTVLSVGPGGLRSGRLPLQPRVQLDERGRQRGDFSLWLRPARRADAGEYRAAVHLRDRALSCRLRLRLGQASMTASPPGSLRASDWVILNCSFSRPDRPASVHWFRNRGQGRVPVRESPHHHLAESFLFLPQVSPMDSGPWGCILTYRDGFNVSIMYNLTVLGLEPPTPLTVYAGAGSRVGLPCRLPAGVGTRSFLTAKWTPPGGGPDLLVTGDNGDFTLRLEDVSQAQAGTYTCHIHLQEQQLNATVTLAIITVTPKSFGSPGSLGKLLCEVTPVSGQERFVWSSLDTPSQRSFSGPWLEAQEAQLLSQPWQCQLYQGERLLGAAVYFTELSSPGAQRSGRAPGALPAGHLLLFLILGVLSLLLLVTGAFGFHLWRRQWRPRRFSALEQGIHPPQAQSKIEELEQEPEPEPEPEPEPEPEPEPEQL
Assay: FACS, HEK293-hLAG-3; 1.600 nM
OBSERVED_PROPERTY: Mean fluorescence intensity (MFI)
Numeric only. Scale: MFI

# input Determine from records and report Mean fluorescence intensity for 409B11E12 (mouse antibody purified from hybridoma) (antibody, V domains shown, also called mAb104-409B11E12) VH: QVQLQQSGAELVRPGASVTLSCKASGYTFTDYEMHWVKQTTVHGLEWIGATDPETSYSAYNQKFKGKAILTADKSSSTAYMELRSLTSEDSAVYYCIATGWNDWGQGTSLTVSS VL: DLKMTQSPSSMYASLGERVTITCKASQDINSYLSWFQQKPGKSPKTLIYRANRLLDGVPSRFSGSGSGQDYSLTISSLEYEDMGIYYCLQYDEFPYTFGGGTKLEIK
# output 55.6
